- Test system: HSV-1
- assay-protocol: HSV-1 infectivity plaque assay on Vero cell monolayers (co-exposure, virus pre-treatment, cell pre-exposure)
- Assay type: cell-based
- condition: co-exposure; peptide 20 µM; mean and SD of 3 replicates
No end group written: not given here.
We begin with a simple list: items and their reported % of infectivity.
test-readout: % of infectivity

> print(dat)
                                  substance      test.readout      result
1  GIINTLQKYYCRVRGGRCAVLSCLPKEEQIGKCSTRGAKCCK [3C]  % of infectivity  61.7±3.4 %
2  GIINTLQKYYCRVRGGRCAVLSCLPKEEQIGKCSTRGRKCCRRKK-OH (cysteines drawn unpaired) [hBD3 wt, reference compound]  % of infectivity   23.4±2.5%
3  QKYYCRVRGGRCAVLSCLPKEEQIGKCSTRGRKCCRRKK [3N]  % of infectivity   20.4±2.4%
4  DHYNCVSSGGQCLYSACPIFTKIQGTCYRGKRKCCRRKK [1C]  % of infectivity  57.6±1.8 %
5  DHYNCVSSGGQCLYSACPIFTKIQGTCYRGKAKCCK [hBD1 wt, wild type human beta-defensin 1, reference compound]  % of infectivity  74.7±2.4 %
6  GIINTLDHYNCVSSGGQCLYSACPIFTKIQGTCYRGKAKCCK [1N]  % of infectivity  73.2±4.2 %
